B1: DnaJ homolog subfamily C member 2, residues 451 to 503; numbered along this chain, Q99543 (parent)
chain: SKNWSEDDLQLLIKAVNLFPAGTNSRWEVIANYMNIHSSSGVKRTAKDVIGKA

variants of: B1; assay: abundance fitness (aPCA) (normalised: wild type 0, dead -1); higher = more abundant; growth selection in yeast, the domain comes from the species named; details: Homo sapiens
Mark rule met for reported abundance fitness of -0.5 or greater; mark rule not met for anything smaller.

Decide: is the reported value of abundance fitness for K47Q equal to or greater than -0.5? rule met

// inclusive: abundance fitness at least -0.5? input: V29R rule met

Kindly determine if abundance fitness recorded for D48P is above or exactly -0.5. rule not met

# check: abundance fitness of L9M is greater than or equal to -0.5 rule met

Test whether the variant L18A records abundance fitness of -0.5 or higher. rule met

Could you verify whether the entry S1P shows abundance fitness of no less than -0.5? rule not met

Record M34A ; criterion: abundance fitness no lower than -0.5. Met? rule not met

Test whether the variant A31K records abundance fitness of -0.5 or higher. rule met
